- experiment description: Cellular Toxicity (caspase-3) H-4-II-E (AID 663);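 further: cells exposed to compound for 16 hr before readout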
- experimental setup: H-4-II-E rat hepatoma, scaled: DMSO 0%, 100 µM tamoxifen 100%; at 92.2 µM (top of the series)
Records with an inconclusive call do not appear.
readout: caspase-3 activation (%)
Numbers only here, please. The scale is %.

OC(CCl)CCl :: 1.01
Nc1cccc(O)c1 :: -0.484

I'd like to know its caspase-3 activation. The compound in question is `Cc1ccc(C)o1`
-0.53

I'd like to know its caspase-3 activation. The compound in question is `c1ccsc1`
0.78

I'd like to know its caspase-3 activation. The compound in question is `Cc1cccc(C)c1[N+](=O)[O-]`
-0.326

I'd like to know its caspase-3 activation. The compound in question is `Cc1ccc(C(=O)O)cc1`
1.11

I'd like to know its caspase-3 activation. The compound in question is `C1COC1`
1.05

I'd like to know its caspase-3 activation. The compound in question is CC(C=O)Cc1ccc(C(C)(C)C)cc1 (configuration not stated)
0.297

I'd like to know its caspase-3 activation. The compound in question is `CCOCCO`
-0.494

I'd like to know its caspase-3 activation. The compound in question is `CC(C)CO`
-0.412

I'd like to know its caspase-3 activation. The compound in question is `CC#N`
0.385

I'd like to know its caspase-3 activation. The compound in question is CCCCCCCCCCCCC1CO1 (configuration not stated)
0.543

I'd like to know its caspase-3 activation. The compound in question is `CSCCC=O`
-0.467

I'd like to know its caspase-3 activation. The compound in question is `CC(C)=CCC/C(C)=C/C=O`
0.873

----------
- experiment description: Cellular Toxicity (caspase-3) NIH 3T3 (AID 666);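 further: caspase signal read after 16 h compound exposure; 0% = DMSO basal and 100% = 100 µM tamoxifen stimulation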
- experimental setup: NIH 3T3 caspase-3 activation, apoptosis/toxicity, 0% DMSO, 100% is 100 µM tamoxifen; series mostly up to 92.2 µM
Results filed as inconclusive are left out. Calls of active or inactive are those of the source. Calls come from the whole dose curve; as a rule, active = well fitted activation curve with a large enough effect; inconclusive = small, poorly fitted or top-dose-only effect, or effect the other way; inactive = flat fitted curve, though single readings scatter.
readout: outcome

C=CC(=O)OCCCC :: inactive
CCCC(C)CO (configuration not stated) :: inactive
Nc1ccccc1S(=O)(=O)O :: inactive
Cc1ccc2ccccc2c1[N+](=O)[O-] :: inactive
Nc1ccc([N+](=O)[O-])c(N)c1 :: inactive
Nc1cccc(S(=O)(=O)O)c1 :: inactive

I'd like to know its outcome. The compound in question is `Cc1ccc(S(=O)(=O)NC2CCCCC2)cc1`
inactive

I'd like to know its outcome. The compound in question is `[O-]/[N+](=N\O)c1ccccc1`
inactive

I'd like to know its outcome. The compound in question is `CCCCCCC(=O)O`
inactive

I'd like to know its outcome. The compound in question is `CC(C)N(C)C`
inactive

I'd like to know its outcome. The compound in question is `COC(=O)c1ccccc1`
inactive

----------
- experimental target: Retinoic acid receptor RXR-alpha (Homo sapiens) (UniProt P19793)
- Sequence (P19793 whole entry, looked up): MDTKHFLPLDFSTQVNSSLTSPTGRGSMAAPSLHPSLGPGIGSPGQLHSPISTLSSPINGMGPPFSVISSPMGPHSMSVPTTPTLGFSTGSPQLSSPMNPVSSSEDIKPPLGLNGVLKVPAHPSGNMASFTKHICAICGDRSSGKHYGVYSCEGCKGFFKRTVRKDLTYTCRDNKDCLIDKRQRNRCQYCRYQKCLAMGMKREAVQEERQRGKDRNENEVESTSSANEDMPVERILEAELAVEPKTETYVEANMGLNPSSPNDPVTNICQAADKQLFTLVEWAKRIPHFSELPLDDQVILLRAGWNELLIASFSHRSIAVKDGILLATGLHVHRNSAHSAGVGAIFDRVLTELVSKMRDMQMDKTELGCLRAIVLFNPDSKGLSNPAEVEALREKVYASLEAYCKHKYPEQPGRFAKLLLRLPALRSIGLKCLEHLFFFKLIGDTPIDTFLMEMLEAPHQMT
- experiment description: qHTS assay for small molecule antagonists of retinoid X receptor alpha signaling (AID 588546);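 further: cells stimulated with 9-cis-retinoic acid as agonist; on the % scale 0 is the no-effect control and ±100 the full control effect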
- experimental setup: HEK293T RXRa-UAS-bla, beta-lactamase ratio, antagonist mode
Results filed as inconclusive are left out.
readout: max response (%)
Numbers only here, please. The scale is %.

Here are 5 compounds together with their reported answers.
O=C1CCCCC1 :: -0.633
BrC/C=C/CBr :: -9.94
O=C(O)c1ccc(Cl)c(Cl)c1 :: 14.6
Cc1ccc2c(c1[N+](=O)[O-])C(=O)c1ccccc1C2=O :: -0.36
Cc1cccc(C(=O)O)c1 :: 12.5

I'd like to know its max response. The compound in question is `CCCCN(CCO)CCCC`
4.73

I'd like to know its max response. The compound in question is `Nc1ccc([N+](=O)[O-])c(N)c1`
-8.62

I'd like to know its max response. The compound in question is `OC/C(Br)=C(\Br)CO`
-0.311

I'd like to know its max response. The compound in question is `O=C(O)/C=C/C(=O)O`
8.67

I'd like to know its max response. The compound in question is `C1CCOC1`
0.04
